test summary: Lipid nanoparticle size and polydispersity by dynamic light scattering
Format: physicochemical
applied conditions: LNP of lipid/DSPC/cholesterol/PEG-lipid 50:10:38.5:1.5 encapsulating hEPO mRNA
quantity name: polydispersity

CCCCCCCCCCCC(=O)OCCCCCN(CCN(CCO)CCCCCOC(=O)CC(CCCCCCCC)CCCCCCCC)C1CCCCCCC1 : 0.103

(I) CCCCCCCCC(CCCCCCCC)CC(=O)OCCCCCN(CCO)CCN(CCCCCOC(=O)CC(CCCCCCCC)CCCCCCCC)C1CCC1
(II) CCCCCCCCCCCCCCN(CCCCCCCCCCCCCC)C(=O)CCCCCN(CCO)CCN(CCCCCC(=O)OCCCCCCCCCCC)C1CCCCC1
QUERY: Returns: the label, I or II , whose recorded polydispersity is the lower number. Pick one and reply with its label.
RESULT: I
(I: 0.034, II: 0.086)

(A) CCCCC/C=C\CCCC(CCC/C=C\CCCCC)COC(=O)CCCCCN(CCO)CCN(CCCCCC(=O)OCC(CCC/C=C\CCCCC)CCC/C=C\CCCCC)C1CCCCC1
(B) CCCCCCCC(=O)OCC(CCCCN(CCO)CCN(CCCCC(COC(=O)CCCCCCC)COC(=O)CCCCCCC)C1CCCCCCC1)COC(=O)CCCCCCC
(C) CCCCCCCCC(CCCCCC)CNC(=O)CCCCCN(CCCCCO)CCN(CCCCC(COC(=O)CCCCCCC)COC(=O)CCCCCCC)C1CCCC1 (stereo not shown)
QUERY: Could you please sort these 3 entries by polydispersity from high to low? Please list the labels in the order you were asked to rank them.
RESULT: B, A, C
(B: 0.090, A: 0.049, C: 0.027)

(A) CCCCCCCCCCCC(=O)OCCCCCN(CCN(CCO)CCCCCNC(=O)CC(CCCCCCCC)CCCCCCCC)C1CCCCC1
(B) CCCCCCCCC(CCCCCCCC)COC(=O)CCCCCN(C/C=C/CN(CCCCCC(=O)OCC(CCCCCCCC)CCCCCCCC)C1CCC1)CCO
QUERY: Between A and B , whose recorded polydispersity is greater? Pick one and reply with its label.
RESULT: A
(A: 0.063, B: 0.044)
